System: MXD3 mRNA
experimental_protocol: MXD3 mRNA levels in K-562 cells by quantitative real-time PCR
Format: cell-based, human
details: K-562 cells, MXD3 mRNA, 0-35.0 μM, approximate values
pIC50: −log10 of the molar value. Oligonucleotides are written 5' to 3', each unit as a sugar letter and its base; * is a phosphorothioate linkage, no mark a phosphodiester; rarer units and linkages stand in square brackets, end groups in braces. Plain capitals give the bases only. k = constrained ethyl (cEt); [5mC] = 5-methylcytosine; d = 2'-deoxy (DNA)
Each item that follows carries a reported pIC50.

# substance, pIC50
rows = [
    ("632669 (antisense kT*kA*kA*dA*d[5mC]*dA*d[5mC]*dT*dT*dG*dT*d[5mC]*dA*kG*kA*kG) [compound 632669]", 5.04),
    ("632417 (antisense kG*kG*k[5mC]*d[5mC]*d[5mC]*dT*dG*dG*dA*dG*d[5mC]*dG*dA*kA*k[5mC]*k[5mC]) [compound 632417]", 5.15),
    ("632407 (antisense k[5mC]*kA*kT*d[5mC]*d[5mC]*dA*d[5mC]*d[5mC]*d[5mC]*dA*d[5mC]*dG*d[5mC]*k[5mC]*kG*kG) [compound 632407]", 5.79),
    ("632424 (antisense kA*kG*k[5mC]*d[5mC]*dG*d[5mC]*dA*dG*d[5mC]*d[5mC]*d[5mC]*dA*d[5mC]*k[5mC]*k[5mC]*kT) [compound 632424]", 5.79),
    ("632682 (antisense kG*kT*k[5mC]*dA*dT*dT*d[5mC]*dA*dA*d[5mC]*dA*dA*dG*kA*kA*kG) [compound 632682]", 5.25),
    ("632673 (antisense k[5mC]*kA*k[5mC]*dA*dT*d[5mC]*dA*dT*d[5mC]*d[5mC]*dA*dT*d[5mC]*k[5mC]*kG*kA) [compound 632673]", 5.25),
    ("632640 (antisense k[5mC]*kA*kA*dG*d[5mC]*dA*dA*d[5mC]*dA*dA*dG*dT*dG*kG*kG*k[5mC]) [compound 632640]", 6.42),
    ("632672 (antisense kA*kT*k[5mC]*d[5mC]*dA*dT*d[5mC]*d[5mC]*dG*dA*dG*dA*dA*k[5mC]*k[5mC]*kA) [compound 632672]", 5.32),
    ("632527 (antisense k[5mC]*kA*kT*d[5mC]*dA*dT*dA*dG*d[5mC]*d[5mC]*dA*dG*dG*k[5mC]*kG*k[5mC]) [compound 632527]", 5.03),
    ("632634 (antisense kG*kG*kA*dT*dT*dA*d[5mC]*dT*dG*dT*d[5mC]*d[5mC]*dT*kA*kG*kG) [compound 632634]", 5.24),
    ("632460 (antisense kA*kT*kA*dA*d[5mC]*d[5mC]*dA*dT*dG*d[5mC]*dT*d[5mC]*dG*kG*k[5mC]*k[5mC]) [compound 632460]", 5.53),
    ("632461 (antisense k[5mC]*kA*k[5mC]*dA*dG*dG*dG*dA*d[5mC]*dG*d[5mC]*dA*dT*kA*kA*k[5mC]) [compound 632461]", 5.05),
    ("632528 (antisense kA*kG*kG*dA*dA*d[5mC]*dA*dT*d[5mC]*dA*dT*dA*dG*k[5mC]*k[5mC]*kA) [compound 632528]", 5.23),
]
